- TEST: In vitro permeability assay in Caco-2 monolayers
- COND: human, Caco-2
PARAMETER: efflux ratio at 120 min, 4 µg/mL

- C[C@H]1COC2(CCN(c3nc(=O)c4cc(C(F)(F)F)cc([N+](=O)[O-])c4s3)CC2)O1: 1.14

====

- TEST: LCM coupled LC-MS/MS of necrotic granulomas and non-necrotic regions
- Format: in vivo, IL-13tg mice
- COND: IL-13tg, mouse, lung, whole cryosection, oral, 250 mg/kg, whole cryosection from OT207 (QC, internal control), mean of 2 technical replicates, 4h post administration; read-out: ng/mg lung tissue, Mean
PARAMETER: concentration at 4 h (ng/g)

- C[C@H]1COC2(CCN(c3nc(=O)c4cc(C(F)(F)F)cc([N+](=O)[O-])c4s3)CC2)O1: 810

====

- TEST: LCM coupled LC-MS/MS of necrotic granulomas and non-necrotic regions
- Format: in vivo, IL-13tg mice
- COND: IL-13tg, mouse, oral, 250 mg/kg, LCM flakes from adjacent area (non necrotic), 4h post administration; read-out: ng/mg lung tissue, technical replicate 2
PARAMETER: concentration at 4 h (ng/g)

* C[C@H]1COC2(CCN(c3nc(=O)c4cc(C(F)(F)F)cc([N+](=O)[O-])c4s3)CC2)O1 | 371

====

- TEST: in vivo
- COND: female, IL-13tg, mouse, lung cryosection, oral, 250 mg/kg
PARAMETER: concentration at 8 h

* C[C@H]1COC2(CCN(c3nc(=O)c4cc(C(F)(F)F)cc([N+](=O)[O-])c4s3)CC2)O1 [BTZ-043] | 260 ng/g

====

- TEST: in vitro
- COND: human, Caco-2, Mean Papp
PARAMETER: Papp at 120 min, 4 µg/mL (×10⁻⁶ cm/s)

• C[C@H]1COC2(CCN(c3nc(=O)c4cc(C(F)(F)F)cc([N+](=O)[O-])c4s3)CC2)O1 = 12.9

====

- TEST: In vitro permeability assay in Caco-2 monolayers
- COND: human, Caco-2
PARAMETER: efflux ratio at 120 min, 25 µg/mL

• NC(=O)c1cnccn1 [PZA, pyrazinamide] = 0.79

====

- TEST: In vitro permeability assay in Caco-2 monolayers
- COND: human, Caco-2, Mean Papp, Caco-2, 25 µg/mL, direction AB, n=3
PARAMETER: Papp at 120 min, 25 µg/mL

- NC(=O)c1cnccn1 [PZA, pyrazinamide]: 49.7 ×10⁻⁶ cm/s
